targetUnderTest: N-NTD (SARS-CoV-2 (Wuhan-Hu-1), UniProt P0DTC9 46-174)
assayMethodText: fluorescence anisotropy; 10 mM Tris-HCl pH 7.4, 150 mM NaCl, 1 mM MgCl2; […]; BLI with 0.05% Tween-20; […]
Can you tell me pKd for the items I'm about to list?
Hey, just a heads up that pKd is the negative log base 10 of the concentration in molar.

## Task Please indicate pKd recorded for TCGGACATCGGATTGTCTGA (XNA, 2'-fluoro-dG at position 10 (loop G3); i6-FAMK at position 13 (loop T6)) [A58-20-2'FG3-iT6FAM]
## Result 7.86

## Task Please indicate pKd recorded for TCGGACATCGGATTGTCTGA (XNA, 2'-fluoro-dG at position 10 (loop G3)) [A58-20-2'FG3]
## Result 7.13

## Task Please indicate pKd recorded for TCGGACATCGGATTGTCCGA (ssDNA) [A58-20_nwb2]
## Result 7.06

## Task Please indicate pKd recorded for TCGGACATCGGATTGTCTGA (ssDNA, fluorescein-dT (i6-FAMK) at position 13 (loop T6)) [A58-20-iT6FAM]
## Result 7.13

## Task Please indicate pKd recorded for TCAGACATCGGATTGTCTGA (ssDNA) [A58-20_nwb1]
## Result 7.07
